- Protocol Description: Tissue distribution after oral administration
- Type: in vivo
- Test Parameters: small intestinal tissue; rat, oral 10 mg/kg, 8 hours; read-out: Concentration in small intestinal tissue
Peptide text beside a SMILES is read from it.
Measure Name: concentration at 8 h
Number plus unit, in that order.

Q: Entry CCCCCCCCCCCCCCCC(=O)N1CCC[C@H]1C(=O)N1CCC[C@H]1C(=O)NCC(=O)N[C@@H](Cc1ccc(O)cc1)C(=O)O [compound 1.1] (HELM PEPTIDE1{[CCCCCCCCCCCCCCCC(=O)[*:2]].P.P.G.Y}$$$$V2.0) needs its concentration at 8 h filled in; supply it.
Ans: 78.1 ng/mL

Taken from patent US11365215B2.
